# study target: PI3Kγ (p110γ) (Homo sapiens (Human))
# Sequence (P48736 whole entry): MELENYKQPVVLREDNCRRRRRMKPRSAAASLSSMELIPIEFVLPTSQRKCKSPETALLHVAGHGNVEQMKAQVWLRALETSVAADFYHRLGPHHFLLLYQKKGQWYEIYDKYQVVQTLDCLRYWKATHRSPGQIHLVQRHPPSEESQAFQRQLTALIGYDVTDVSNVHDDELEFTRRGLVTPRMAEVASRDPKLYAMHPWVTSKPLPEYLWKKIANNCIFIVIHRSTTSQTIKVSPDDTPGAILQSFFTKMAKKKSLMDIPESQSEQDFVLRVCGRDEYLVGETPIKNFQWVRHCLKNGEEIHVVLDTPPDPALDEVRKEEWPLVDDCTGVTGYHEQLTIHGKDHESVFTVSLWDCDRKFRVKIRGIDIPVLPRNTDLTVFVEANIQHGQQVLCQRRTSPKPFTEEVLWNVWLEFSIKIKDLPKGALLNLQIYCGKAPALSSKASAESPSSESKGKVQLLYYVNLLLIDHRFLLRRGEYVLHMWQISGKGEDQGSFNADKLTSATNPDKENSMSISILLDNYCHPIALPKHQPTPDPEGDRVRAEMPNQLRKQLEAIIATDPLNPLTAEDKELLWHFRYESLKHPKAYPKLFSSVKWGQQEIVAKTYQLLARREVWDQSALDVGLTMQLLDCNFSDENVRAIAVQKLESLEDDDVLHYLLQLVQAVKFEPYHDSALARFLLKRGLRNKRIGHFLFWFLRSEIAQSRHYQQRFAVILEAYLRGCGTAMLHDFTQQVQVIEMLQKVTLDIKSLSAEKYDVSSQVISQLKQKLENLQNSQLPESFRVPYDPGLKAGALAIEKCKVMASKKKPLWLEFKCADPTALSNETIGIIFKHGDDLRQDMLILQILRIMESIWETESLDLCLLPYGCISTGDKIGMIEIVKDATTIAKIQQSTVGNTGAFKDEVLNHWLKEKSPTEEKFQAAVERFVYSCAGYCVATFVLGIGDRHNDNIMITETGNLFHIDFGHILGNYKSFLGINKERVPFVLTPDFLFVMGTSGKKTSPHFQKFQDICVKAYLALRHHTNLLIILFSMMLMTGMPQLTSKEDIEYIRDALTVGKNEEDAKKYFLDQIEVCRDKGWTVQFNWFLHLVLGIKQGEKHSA
# experimental details: PI3K-γ scintillation proximity assay
# study conditions: recombinant human PI3Kγ 13 nM, 20 μM PIP2, 2 μM ATP, 120 min, room temperature
Where a name gives a salt, the structure may show the parent alone.

{"columns": ["compound", "study target", "IC50"],
 "data": [
  ["Cc1[nH]c(-c2cc(-c3cc4c(c(S(C)(=O)=O)c3)C(=O)N([C@@H](C)C3CC3)C4)ccn2)nc1C(=O)N1CC2(COC2)C1 [Example 7p, trifluoroacetate salt]", "PI3Kγ (p110γ) (Homo sapiens (Human))", "< 100 nM"],
  ["Cc1cc(-c2cc(-c3cc4c(c(S(C)(=O)=O)c3)C(=O)N([C@@H](C)C3CC3)C4)cnn2)[nH]n1 [Example 10, trifluoroacetate salt]", "PI3Kγ (p110γ) (Homo sapiens (Human))", "100 to 500 nM"],
  ["C[C@@H](C1CC1)N1Cc2cc(-c3cnnc(-c4ccn[nH]4)c3)cc(S(C)(=O)=O)c2C1=O [Example 9, Trifluoroacetate Salt]", "PI3Kγ (p110γ) (Homo sapiens (Human))", "100 to 500 nM"],
  ["Cc1nc(-c2cc(-c3cc4c(c(S(C)(=N)=O)c3)C(=O)N([C@@H](C)C3CC3)C4)ccn2)[nH]c1C (single isomer, unassigned) [Example 22]", "PI3Kγ (p110γ) (Homo sapiens (Human))", "< 100 nM"],
  ["CN=S(C)(=O)c1cc(-c2ccnc(-c3nc(C)c(C)[nH]3)c2)cc2c1C(=O)N([C@@H](C)C1CC1)C2 (single isomer, unassigned) [Example 25]", "PI3Kγ (p110γ) (Homo sapiens (Human))", "< 100 nM"],
  ["Cc1nc(-c2cc(-c3cc4c(c(C(O)CO)c3)C(=O)N([C@@H](C)C3CC3)C4)ccn2)[nH]c1C (stereo partly drawn)", "PI3Kγ (p110γ) (Homo sapiens (Human))", "< 100 nM"]
]}

====

# Test system: Phosphorylated Ribosomal Protein S6 (RPS6) in THP-1 cells
# experimental details: THP-1 RPS6 ELISA assay
# Type: cell-based, Human
# study conditions: serum starved THP-1 cells, 2 hours compound, 10 nM MCP-1 for 15 minutes, Phospho-RPS6 ELISA; Trifluoroacetate Salt; read-out: PI3Kγ_THP1_RPS6_ELISA IC50
Counter-ions that a name gives are not always drawn.
measured attribute: IC50

{"columns": ["compound", "study target", "measured attribute", "result"],
 "data": [
  ["Cc1nc(-c2cc(-c3cc4c(c(S(C)(=N)=O)c3)C(=O)N([C@@H](C)C3CC3)C4)ccn2)[nH]c1C (stereo partly shown) [Example 20, Trifluoroacetate Salt]", "Phosphorylated Ribosomal Protein S6 (RPS6) in THP-1 cells", "IC50", "100 to 500 nM"]
]}

====

# Tested on: Phosphorylated Ribosomal Protein S6 (RPS6) in THP-1 cells
# experimental details: THP-1 RPS6 ELISA assay
# Format: cell-based, Human
# study conditions: serum starved THP-1 cells, 2 hours compound, 10 nM MCP-1 for 15 minutes, Phospho-RPS6 ELISA; read-out: PI3Kγ_THP1_RPS6_ELISA IC50
pIC50: −log10 of the molar value.
pIC50 by entry:
measured attribute: pIC50

{"columns": ["molecule", "measured attribute", "result"],
 "data": [
  ["Cc1nc(-c2cc(-c3cc4c(c(S(C)(=O)=O)c3)C(=O)N([C@@H](C)C3CC3)C4)ccn2)[nH]c1C(=O)NC(C)C(F)(F)F (single isomer, unassigned) [Example 7g]", "pIC50", "< 6.00"],
  ["CCC(C)NC(=O)c1[nH]c(-c2cc(-c3cc4c(c(S(C)(=O)=O)c3)C(=O)N([C@@H](C)C3CC3)C4)ccn2)nc1C (single isomer, unassigned) [Example 7l]", "pIC50", "6.30 to 7.00"],
  ["CN=S(C)(=O)c1cc(-c2ccnc(-c3nc(C)c(C)[nH]3)c2)cc2c1C(=O)N([C@@H](C)C1CC1)C2 (stereo partly shown) [Example 24]", "pIC50", "6.30 to 7.00"],
  ["Cc1nc(-c2cc(-c3cc4c(c(S(C)(=N)=O)c3)C(=O)N([C@@H](C)C3CC3)C4)ccn2)[nH]c1C (stereo partly shown) [Example 21]", "pIC50", "6.00 to 6.30"]
]}
